These entries and their values trace back to patent US20150105252A1.

Tested on: rice
protocol description: Test B flood
Format: in vivo, Oryza sativa
reported conditions: 250 g ai/ha, visual rating on 0 to 100 scale (0 no effect, 100 complete control), 13 to 15 days
measurement name: Plant response rating, Rice
Simply state the number, no unit and no words.

Known Plant response rating, Rice results, listed for orientation:
CCc1cc(C(=O)NC2CC2)nn1Oc1ccnc(C(F)(F)F)c1 [Compound 83]
10
CCOc1cc(C(=O)NC(C)C)nn1Cc1ccnc(C(F)(F)F)c1 [Compound 188]
60
O=C(NCC(F)(F)F)c1cc(CCCl)n(Cc2ccnc(C(F)(F)F)c2)n1 [Compound 143]
25
CCCc1cc(C(=O)NCC)nn1Cc1cc(C(F)(F)F)nn1C [Compound 129]
40
CCc1cc(C(=O)NC(C)C)nn1Cc1cc(OC(F)F)nn1C [Compound 137]
0

Prompt: Check the records and state Plant response rating, Rice for CCc1cc(C(=O)NC2CC2)nn1Oc1cccc(C(F)(F)F)c1 [Compound 215]
Completion: 10

Prompt: Check the records and state Plant response rating, Rice for CCCCc1cc(C(=O)NCCC)nn1Cc1ccnc(C(F)(F)F)c1 [Compound 190]
Completion: 0

Prompt: Check the records and state Plant response rating, Rice for CCc1cc(C(=O)NCC(F)(F)F)nn1Oc1cccc(C(F)(F)F)n1 [Compound 87]
Completion: 0

###

Test system: foxtail, giant
protocol description: Test C preemergence
Type: in vivo, Setaria faberii
reported conditions: preemergence, 31 g ai/ha; visual rating, scale 0 to 100 (0 no effect, 100 complete control), 13 to 15 days
A collection of compounds and their measured Foxtail, Giant plant response rating
Simply state the number, no unit and no words.

Known Foxtail, Giant plant response rating results, listed for orientation:
CCONC(=O)c1cc(CC)n(Cc2cc(C(F)(F)F)no2)n1 [Compound 125]
20
CCNC(=O)c1cc(CC)n(Cc2ccnc(C(F)(F)F)c2)n1 [Compound 196]
98
CCCc1cc(C(=O)NCC)nn1Cc1ccnc(C(F)(F)F)c1 [Compound 95]
100
CCOc1cc(C(=O)NC(C)C)nn1Cc1ccnc(C(F)(F)F)c1 [Compound 188]
100
CCc1cc(C(=O)NCC2CC2)nn1Cc1ccnc(C(F)(F)F)c1 [Compound 199]
100

Prompt: Check the records and state Foxtail, Giant plant response rating for CCONC(=O)c1cc(OCC)n(Cc2ccnc(C(F)(F)F)c2)n1 [Compound 195]
Completion: 65

Prompt: Check the records and state Foxtail, Giant plant response rating for CCOc1cc(C(=O)NC2CC2)nn1Cc1ccnc(C(F)(F)F)c1 [Compound 189]
Completion: 100

Prompt: Check the records and state Foxtail, Giant plant response rating for CCCc1cc(C(=O)NCC(F)(F)F)nn1Cc1ccnc(C(F)(F)F)c1 [Compound 105]
Completion: 100

###

Tested on: barley, spring
protocol description: Test D preemergence
Format: in vivo, Hordeum vulgare
reported conditions: 125 g ai/ha, scale 0 to 100
A collection of compounds and their measured Plant response rating, Barley, Spring
Simply state the number, no unit and no words.

Prompt: Check the records and state Plant response rating, Barley, Spring for "CCCc1cc(C(=O)NCC(F)(F)F)nn1Cc1ccnc(C(F)(F)F)c1"
Completion: 65

Prompt: Check the records and state Plant response rating, Barley, Spring for "CCc1cc(C(=O)NC(C)C)nn1Cc1ccnc(C(F)(F)F)c1"
Completion: 80

Prompt: Check the records and state Plant response rating, Barley, Spring for "CCOc1cc(C(=O)NC(C)C)nn1Cc1ccnc(C(F)(F)F)c1"
Completion: 85

Prompt: Check the records and state Plant response rating, Barley, Spring for "CCCc1cc(C(=O)NCC(F)(F)F)nn1Cc1cc(C(F)(F)F)nn1C"
Completion: 40
